- SYSTEM: Melanocortin receptor 4 (Mus musculus, UniProt P56450)
- Sequence (P56450 whole entry): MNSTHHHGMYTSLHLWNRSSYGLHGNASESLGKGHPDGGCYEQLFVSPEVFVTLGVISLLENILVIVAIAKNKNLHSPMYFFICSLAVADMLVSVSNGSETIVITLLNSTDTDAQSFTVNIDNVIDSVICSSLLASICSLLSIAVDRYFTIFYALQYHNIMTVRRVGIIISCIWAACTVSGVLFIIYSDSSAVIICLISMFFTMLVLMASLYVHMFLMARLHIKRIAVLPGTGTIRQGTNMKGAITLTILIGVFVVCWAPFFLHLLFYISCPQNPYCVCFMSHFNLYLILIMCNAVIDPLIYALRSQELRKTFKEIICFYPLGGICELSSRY
- TEST NAME: Agonist activity to the mouse Melanocortin-4 receptor (mMC4R)
pEC50: −log10 of the molar value.
READOUT NAME: pEC50

Record excerpt, results attached:
compound=CC(=O)N[C@@H](Cc1cnc[nH]1)C(=O)N[C@H](C(=O)N[C@@H](CCCNC(=N)N)C(=O)N[C@@H](Cc1c[nH]c2ccccc12)C(N)=O)c1ccccc1 readout_name=pEC50 recorded_value=4.39
compound="CC(=O)N[C@@H](Cc1c[nH]cn1)C(=O)NC1(C(=O)N[C@@H](CCCN=C(N)N)C(=O)N[C@@H](Cc2c[nH]c3ccccc23)C(N)=O)CCc2ccccc2C1 (stereo in doubt; 26)" readout_name=pEC50 recorded_value=5.15
compound=CC(=O)N[C@@H](Cc1cnc[nH]1)C(=O)N[C@@H](Cc1c[nH]c2ccccc12)C(=O)N[C@@H](CCCNC(=N)N)C(=O)N[C@@H](Cc1c[nH]c2ccccc12)C(N)=O readout_name=pEC50 recorded_value=4.46

[P] CC(=O)N[C@@H](Cc1c[nH]cn1)C(=O)NC1(C(=O)N[C@@H](CCCN=C(N)N)C(=O)N[C@@H](Cc2c[nH]c3ccccc23)C(N)=O)CCc2ccccc2C1 (stereo in doubt; 25)
[Q] CC(=O)N[C@@H](Cc1cnc[nH]1)C(=O)N[C@H](Cc1cccc2ccccc12)C(=O)N[C@@H](CCCNC(=N)N)C(=O)N[C@@H](Cc1c[nH]c2ccccc12)C(N)=O
Parameter check: reported pEC50 is higher for which label, P or Q ? Your answer should be the label attached to the chosen record.
Q
(Q: 6.52, P: 5.75)

[A] CC(=O)N[C@@H](Cc1c[nH]cn1)C(=O)N[C@@H](C(=O)N[C@@H](CCCN=C(N)N)C(=O)N[C@@H](Cc1c[nH]c2ccccc12)C(N)=O)C(c1ccccc1)c1ccccc1
[B] CC(=O)N[C@@H](Cc1cnc[nH]1)C(=O)N[C@@H](Cc1ccncc1)C(=O)N[C@@H](CCCNC(=N)N)C(=O)N[C@@H](Cc1c[nH]c2ccccc12)C(N)=O
Response body: label of entry with the larger pEC50; valid values A , B . // caller expects the label of the chosen entry
A
(A: 5.30, B: 4.61)
